# Test system: L1210
# experimental details: Inhibitory concentration against L1210 murine lymphocytic leukemia
# Assay type: functional, cell-based
# recorded conditions: Mus musculus
observable: pIC50
Hey, just a heads up that pIC50 is the negative log base 10 of the concentration in molar.

What pIC50 value was documented for this compound, NC(=O)c1csc([C@@H]2O[C@H](CO)[C@@H](O)[C@H]2O)c1 ?
5.12

More entries:
I would be grateful if you could share the reported pIC50 for NC(=O)c1csc([C@@H]2O[C@H](CO)[C@@H](O)[C@H]2O)n1 .
5.13

* * *

# System: HL-60
# experimental details: Inhibitory concentration against human HL-60 cell line(activity expressed as range)
# Type: functional, cell-based
observable: IC50 (nM)
Write down the numeric answer in nM and omit the unit.

Would you mind telling me what IC50 value was observed for NC(=O)c1csc([C@@H]2O[C@H](CO)[C@@H](O)[C@H]2O)c1 ?
2400

* * *

The entries below are paired with their reported IC50.
# Tested on: P388
# experimental details: Inhibitory concentration against P388 murine lymphocytic leukemia cell lines
# Assay type: functional, cell-based
# recorded conditions: Mus musculus

Consider the compound shown here: NC(=O)c1csc([C@@H]2O[C@H](CO)[C@@H](O)[C@H]2O)n1 [TIAZOFURIN] What is its recorded IC50?
2.2 µM

Switching to the query record.
What value of IC50 has been reported for the following compound? NC(=O)c1csc([C@@H]2O[C@H](CO)[C@@H](O)[C@H]2O)c1
3.2 µM

* * *

# Test system: HL-60
# experimental details: Inhibitory concentration against HL-60 human promyelocytic leukemia
# Assay type: functional, cell-based
observable: IC50 (µM)
Answer with a number only, understood to be in µM.

Which IC50 reading was recorded for the molecule NC(=O)c1csc([C@@H]2O[C@H](CO)[C@@H](O)[C@H]2O)n1 ?
8.7

Requested read-out: IC50. Entry: NC(=O)c1csc([C@@H]2O[C@H](CO)[C@@H](O)[C@H]2O)c1
13.9

# credit: ChEMBL document CHEMBL1128731
